test: HSF-1 activators, primary screen, NIH3T3-HGL cells, MG132 stress, luminescence, single point (AID 504408); details: NIH3T3-HGL HSF-1 luciferase reporter, MG132, 8 h; at 9 µM; active compounds read high; 100% = twice DMSO control signal;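 further: 0% = median of the neutral control wells and 100% = twice that signal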
The campaign covered roughly 300,000 compounds. About 5,200 (1.7%) were called active. This is one part of a sample in which actives are shown more often than they occur.
assay_endpoint: activation (%)
Write the answer as a number in %, unit excluded.

Known results for compounds:
CCN(CC(=O)Nc1c(F)cccc1F)C(=O)C1CCC1    -4.88
CCOC(=O)c1c(-c2ccc(C)cc2)csc1/N=C(\C)C1=C(O)c2ccccc2C1=O    9.57
Cc1onc(-c2ccccc2Cl)c1C(=O)N(Cc1ccc(N(C)C)cc1)C(C)C    8.27
COC(=O)c1ccc(NS(=O)(=O)c2cc3c4c(c2)C(C)C(=O)N4CCC3)cc1 (configuration not stated)    21.6
Cc1cc(C)cc(NC(=O)COc2coc(CN3CCN(c4ccccc4)CC3)cc2=O)c1    1.43
COc1ccccc1-c1nnc(-c2ccc(F)cc2)o1    38.9
Cc1ccc(CSc2nc3[nH]ncc3c(=O)[nH]2)cc1    87.9
O=C(OCC1OC(Oc2ccc(O)cc2)C(O)C(O)C1O)c1ccccc1 (configuration not stated)    -4.63
O=C(Nn1c(SCc2ccc([N+](=O)[O-])cc2)nc2ccccc2c1=O)c1ccc(F)cc1    51.9
CC(=O)N/C(=C\c1ccccc1)C(=O)OC(C)C(=O)N(C)c1ccccc1 (configuration not stated)    2.37

Incoming: Entry under review: Cc1ccccc1CSCC(=O)NC(=O)NC(C)(C)C . Reported activation?
Outgoing: 5.08

Incoming: Can you check COc1ccc2sc(N(CCCN(C)C)C(=O)c3ccc(S(=O)(=O)N(C)C4CCCCC4)cc3)nc2c1 next?
Outgoing: -14.5

Incoming: Can you check O=C(Nn1c(-c2ccccc2)nc2ccccc2c1=O)c1ccc([N+](=O)[O-])cc1 next?
Outgoing: 19.1

Incoming: Can you check CC1CCN(C(=O)COC(=O)c2cc(S(=O)(=O)N3CCOCC3)ccc2Cl)CC1 next?
Outgoing: -3.43

Incoming: Can you check O=C1c2ccccc2C(=O)N1CCOc1ccc(F)cc1 next?
Outgoing: 43.4

Incoming: Can you check O=C(CCN1C(=O)c2ccccc2C1=O)C1=NN[C@@H]2C(=O)N(c3ccc(F)cc3)C(=O)[C@H]12 next?
Outgoing: 67.2

Incoming: Can you check COc1ccc(OCCCON2C(=O)c3ccccc3C2=O)cc1 next?
Outgoing: 3.41

Incoming: Can you check O=C(COC(=O)Cc1ccccc1F)NNC(=O)c1ccc(Cl)cc1 next?
Outgoing: -9.93

Incoming: Can you check Cc1nn(C)cc1C(=O)c1ccccc1 next?
Outgoing: 5.22

Incoming: Can you check COc1ccc(-c2csc(-c3cccs3)n2)cc1OC next?
Outgoing: 19.1

Incoming: Can you check COc1ccccc1NS(=O)(=O)c1ccc(C(=O)N2CCN(c3ccccc3O)CC2)cc1 next?
Outgoing: 14.5

Incoming: Can you check Cc1noc(C)c1CSCC(=O)Nc1ccc(Br)cc1Cl next?
Outgoing: 1.94
